- Test system: RS4; 11
- EXPERIMENTAL DETAILS: Cell viability assay (MTS) in RS4; 11 cells
- Format: cell-based
- CONDITION SET: Homo sapiens, RS4-11; Table 2; 48 hr; MTS; read-out: Anti-Cancer Activity IC50 (48 hr) RS4; 11
QUANTITY KIND: IC50

{"MOLECULE": "Cc1ncsc1-c1ccc([C@H](C)NC(=O)[C@@H]2C[C@@H](O)CN2C(=O)[C@@H](NC(=O)CN2CCN(CC(=O)N3CCN(CC4(C)CCC(c5ccc(Cl)cc5)=C(CN5CCN(c6ccc(C(=O)NS(=O)(=O)c7ccc(N[C@H](CCN8CCOCC8)CSc8ccccc8)c(S(=O)(=O)C(F)(F)F)c7)cc6)CC5)C4)CC3)CC2)C(C)(C)C)cc1 (stereo partly drawn) [Compound 25]", "MEASURED": "< 20 nM"}
{"MOLECULE": "Cc1ncsc1-c1ccc([C@H](C)NC(=O)[C@@H]2C[C@@H](O)CN2C(=O)[C@@H](NC(=O)CCCCCCC(=O)N2CCN(C[C@]3(C)CCC(c4ccc(Cl)cc4)=C(CN4CCN(c5ccc(C(=O)NS(=O)(=O)c6ccc(N[C@H](CCN7C[C@H]8C[C@@H]7CO8)CSc7ccccc7)c(S(=O)(=O)C(F)(F)F)c6)cc5)CC4)C3)CC2)C(C)(C)C)cc1 [Compound 66]", "MEASURED": "< 20 nM"}

Query: Write down the reported IC50 of Cc1ncsc1-c1ccc([C@H](C)NC(=O)[C@@H]2C[C@@H](O)CN2C(=O)[C@@H](NC(=O)CCCCCCS(=O)(=O)N2CCN(C[C@]3(C)CCC(c4ccc(Cl)cc4)=C(CN4CCN(c5ccc(C(=O)NS(=O)(=O)c6ccc(N[C@H](CCN7CCCOCC7)CSc7ccccc7)c(S(=O)(=O)C(F)(F)F)c6)cc5)CC4)C3)CC2)C(C)(C)C)cc1 [Compound 96] , test system: RS4; 11.
Result: < 20 nM

* * *

- Tested on: RS4; 11
- EXPERIMENTAL DETAILS: Cell viability assay (MTS) in RS4; 11 cells
- Assay type: cell-based
- CONDITION SET: Homo sapiens, RS4-11; Table 2; 48 hr; MTS; read-out: Anti-Cancer Activity IC50 (48 hr) RS4; 11
QUANTITY KIND: IC50

Query: Consider the compound `Cc1ncsc1-c1ccc([C@H](C)NC(=O)[C@@H]2C[C@@H](O)CN2C(=O)[C@@H](NC(=O)CCCCCCC(=O)N2CCN(C[C@]3(C)CCC(c4ccc(Cl)cc4)=C(CN4CCN(c5ccc(C(=O)NS(=O)(=O)c6ccc(N[C@H](CCN7C[C@H]8COC[C@H]8C7)CSc7ccccc7)c(S(=O)(=O)C(F)(F)F)c6)cc5)CC4)C3)CC2)C(C)(C)C)cc1` and give its measured IC50.
Result: < 0.02 µM

Query: IC50 lookup needed for Cc1ncsc1-c1ccc([C@H](C)NC(=O)[C@@H]2C[C@@H](O)CN2C(=O)[C@@H](NC(=O)CN2CCC(CC(=O)N3CCN(CC4(C)CCC(c5ccc(Cl)cc5)=C(CN5CCN(c6ccc(C(=O)NS(=O)(=O)c7ccc(N[C@H](CCN8CCOCC8)CSc8ccccc8)c(S(=O)(=O)C(F)(F)F)c7)cc6)CC5)C4)CC3)CC2)C(C)(C)C)cc1 (stereo partly drawn) , thanks.
Result: 0.02 to 0.1 µM

Query: Quick one: IC50 of Cc1ncsc1-c1ccc([C@H](C)NC(=O)[C@@H]2C[C@@H](O)CN2C(=O)[C@@H](NC(=O)CCCCCCC(=O)N2CCN(CC3(C)CCC(c4ccc(Cl)cc4)=C(CN4CCN(c5ccc(C(=O)NS(=O)(=O)c6ccc(N[C@H](CCN7CCC(O)CC7)CSc7ccccc7)c([N+](=O)[O-])c6)cc5)CC4)C3)CC2)C(C)(C)C)cc1 (stereo partly drawn) ?
Result: < 0.02 µM
